Reference for the values: patent US10351575B2

- Tgt: PKCeta (Homo sapiens (Human))
- Sequence (P24723 whole entry): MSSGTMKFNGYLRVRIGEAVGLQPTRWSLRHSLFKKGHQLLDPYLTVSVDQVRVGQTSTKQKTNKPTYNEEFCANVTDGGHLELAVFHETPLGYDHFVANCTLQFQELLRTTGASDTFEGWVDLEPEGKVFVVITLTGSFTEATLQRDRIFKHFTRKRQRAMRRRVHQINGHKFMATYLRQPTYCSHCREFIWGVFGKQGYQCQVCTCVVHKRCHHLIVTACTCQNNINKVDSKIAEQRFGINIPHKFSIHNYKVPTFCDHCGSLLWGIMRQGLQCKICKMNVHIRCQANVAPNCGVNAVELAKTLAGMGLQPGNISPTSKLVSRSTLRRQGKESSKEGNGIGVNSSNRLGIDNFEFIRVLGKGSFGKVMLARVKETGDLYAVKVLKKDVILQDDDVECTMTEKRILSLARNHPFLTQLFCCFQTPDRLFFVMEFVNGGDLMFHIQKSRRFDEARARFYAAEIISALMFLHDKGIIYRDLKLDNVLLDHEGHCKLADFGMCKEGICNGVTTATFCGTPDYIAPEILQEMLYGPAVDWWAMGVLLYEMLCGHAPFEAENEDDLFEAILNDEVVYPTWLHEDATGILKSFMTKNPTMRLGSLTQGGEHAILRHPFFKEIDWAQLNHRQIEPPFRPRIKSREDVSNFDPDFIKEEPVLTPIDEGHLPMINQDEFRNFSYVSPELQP
- Measurement Notes: KinaseProfiler off-target kinase profiling
- Type: biochemical
- Assay Conditions: 10 μM, ATP near Km
Outcome Measure: Avg. POC (POC)

{"Molecule": "Cc1c(-c2ccc(=O)n(C)c2)nn(-c2ccccc2)c1NC(=O)NC1CN(CC(F)(F)F)Cc2ccccc21 (stereo not shown)", "Tgt": "PKCeta (Homo sapiens (Human))", "Unit Descriptor": "POC", "Result Value": 98}
{"Molecule": "Cc1c(-c2cnn(C)c2)nn(-c2ccccc2)c1NC(=O)NC1CCOc2cc(F)ccc21 (stereo not shown)", "Tgt": "PKCeta (Homo sapiens (Human))", "Unit Descriptor": "POC", "Result Value": 100}
{"Molecule": "Cc1c(-c2cnn(C)c2)nn(-c2ccccc2)c1NC(=O)N[C@H]1CCCc2ccccc21", "Tgt": "PKCeta (Homo sapiens (Human))", "Unit Descriptor": "POC", "Result Value": 107}
{"Molecule": "COCc1ccc2c(c1)C(NC(=O)Nc1c(C)c(-c3cnn(C)c3)nn1-c1ccccc1)COC2 (stereo not shown)", "Tgt": "PKCeta (Homo sapiens (Human))", "Unit Descriptor": "POC", "Result Value": 111.5}

* * *

- Tgt: UniProt:Q9HC98
- Sequence (Q9HC98 whole entry): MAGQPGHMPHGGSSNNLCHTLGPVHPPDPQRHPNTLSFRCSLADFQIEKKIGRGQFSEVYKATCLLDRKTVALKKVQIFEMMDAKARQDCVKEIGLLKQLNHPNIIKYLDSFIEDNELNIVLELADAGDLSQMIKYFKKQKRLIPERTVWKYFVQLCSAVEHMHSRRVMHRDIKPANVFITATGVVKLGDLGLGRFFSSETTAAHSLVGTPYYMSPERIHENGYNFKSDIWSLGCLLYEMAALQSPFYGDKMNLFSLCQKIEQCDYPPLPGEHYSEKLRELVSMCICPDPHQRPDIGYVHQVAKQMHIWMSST
- Measurement Notes: KinaseProfiler off-target kinase profiling
- Assay type: biochemical
- Assay Conditions: 10 μM, ATP near Km
Outcome Measure: Avg. POC (POC)

{"Compound": "Cc1c(-c2ccc(=O)n(C)c2)nn(-c2ccccc2)c1NC(=O)NC1CN(CC(F)(F)F)Cc2ccccc21 (stereo not shown)", "Tgt": "UniProt:Q9HC98", "Result Value": 123.5}
{"Compound": "COCc1ccc2c(c1)C(NC(=O)Nc1c(C)c(-c3cnn(C)c3)nn1-c1ccccc1)COC2 (stereo not shown)", "Tgt": "UniProt:Q9HC98", "Result Value": 123}
{"Compound": "Cc1c(-c2cnn(C)c2)nn(-c2ccccc2)c1NC(=O)NC1CCOc2cc(F)ccc21 (stereo not shown)", "Tgt": "UniProt:Q9HC98", "Result Value": 121}
{"Compound": "Cc1c(-c2cnn(C)c2)nn(-c2ccccc2)c1NC(=O)N[C@H]1CCCc2ccccc21", "Tgt": "UniProt:Q9HC98", "Result Value": 125.5}

* * *

- Tgt: HIPK1 (Homo sapiens (Human))
- Sequence (Q86Z02 whole entry): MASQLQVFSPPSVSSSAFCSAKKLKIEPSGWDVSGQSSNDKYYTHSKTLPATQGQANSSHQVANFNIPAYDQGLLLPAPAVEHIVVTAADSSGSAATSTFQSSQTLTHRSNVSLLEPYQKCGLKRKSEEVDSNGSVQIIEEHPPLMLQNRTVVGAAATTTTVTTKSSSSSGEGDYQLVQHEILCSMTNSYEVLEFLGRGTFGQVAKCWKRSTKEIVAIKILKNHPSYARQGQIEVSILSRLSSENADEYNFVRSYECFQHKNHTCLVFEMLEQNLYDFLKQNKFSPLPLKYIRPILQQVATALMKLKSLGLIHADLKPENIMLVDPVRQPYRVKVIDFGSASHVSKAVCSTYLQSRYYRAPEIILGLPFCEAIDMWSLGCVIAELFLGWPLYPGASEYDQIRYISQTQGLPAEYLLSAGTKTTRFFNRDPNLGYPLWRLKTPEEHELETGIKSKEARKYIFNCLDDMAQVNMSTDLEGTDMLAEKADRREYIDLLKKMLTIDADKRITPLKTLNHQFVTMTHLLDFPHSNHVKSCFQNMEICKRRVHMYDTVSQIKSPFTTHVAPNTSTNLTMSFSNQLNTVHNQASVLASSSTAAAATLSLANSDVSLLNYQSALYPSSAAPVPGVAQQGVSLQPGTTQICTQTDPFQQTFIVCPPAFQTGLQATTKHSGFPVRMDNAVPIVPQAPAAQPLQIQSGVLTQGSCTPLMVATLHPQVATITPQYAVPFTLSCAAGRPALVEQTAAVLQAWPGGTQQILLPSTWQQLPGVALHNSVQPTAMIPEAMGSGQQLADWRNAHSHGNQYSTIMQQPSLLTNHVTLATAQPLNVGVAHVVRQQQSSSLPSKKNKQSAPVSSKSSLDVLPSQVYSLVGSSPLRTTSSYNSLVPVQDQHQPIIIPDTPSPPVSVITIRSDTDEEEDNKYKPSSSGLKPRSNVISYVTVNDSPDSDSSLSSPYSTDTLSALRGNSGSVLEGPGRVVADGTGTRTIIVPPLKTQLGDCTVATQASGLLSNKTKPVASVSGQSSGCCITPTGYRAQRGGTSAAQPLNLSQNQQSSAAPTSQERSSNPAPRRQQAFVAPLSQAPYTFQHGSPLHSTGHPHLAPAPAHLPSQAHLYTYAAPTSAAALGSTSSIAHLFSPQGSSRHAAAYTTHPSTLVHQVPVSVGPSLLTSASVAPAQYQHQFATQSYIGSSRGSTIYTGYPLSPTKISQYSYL
- Measurement Notes: KinaseProfiler off-target kinase profiling
- Assay type: biochemical
- Assay Conditions: 10 μM, ATP near Km
Outcome Measure: Avg. POC (POC)

{"Compound": "COCc1ccc2c(c1)C(NC(=O)Nc1c(C)c(-c3cnn(C)c3)nn1-c1ccccc1)COC2 (stereo not shown) [Example 32]", "Tgt": "HIPK1 (Homo sapiens (Human))", "Outcome Measure": "Avg. POC", "Unit Descriptor": "POC", "Result Value": 115}
{"Compound": "Cc1c(-c2cnn(C)c2)nn(-c2ccccc2)c1NC(=O)NC1CCOc2cc(F)ccc21 (stereo not shown) [Example 12]", "Tgt": "HIPK1 (Homo sapiens (Human))", "Outcome Measure": "Avg. POC", "Unit Descriptor": "POC", "Result Value": 102.5}
{"Compound": "Cc1c(-c2ccc(=O)n(C)c2)nn(-c2ccccc2)c1NC(=O)NC1CN(CC(F)(F)F)Cc2ccccc21 (stereo not shown) [Example 26]", "Tgt": "HIPK1 (Homo sapiens (Human))", "Outcome Measure": "Avg. POC", "Unit Descriptor": "POC", "Result Value": 111}
{"Compound": "Cc1c(-c2cnn(C)c2)nn(-c2ccccc2)c1NC(=O)N[C@H]1CCCc2ccccc21 [Example 2]", "Tgt": "HIPK1 (Homo sapiens (Human))", "Outcome Measure": "Avg. POC", "Unit Descriptor": "POC", "Result Value": 97}
